# Test system: EKVX
# Assay details: NCI tumour cell line growth inhibition, 48 h
Active and inactive are the calls of the source. Rule as the data show it: active = GI50 up to about 1.1 µM and inactive = higher.
Assign GI50 to each entry below.

Please report the measured GI50 for O=C(/C(=C\I)c1ccccc1)c1ccccc1
18.3 µM (inactive)

Please report the measured GI50 for CC(=O)Nc1ccc(CNc2cc(=O)[nH]c(=O)[nH]2)cc1
> 100 µM (inactive)

Please report the measured GI50 for COc1ccc(OC)c2c(C)ccnc12
14.3 µM (inactive)

Please report the measured GI50 for COc1cccc2c1C(=O)c1ccc3cc(CCl)cc(O)c3c1C2=O
1.09 µM (active)

Please report the measured GI50 for Clc1ccc2sc(-n3ccc4ccccc43)nc2c1
> 100 µM (inactive)

Please report the measured GI50 for CN(CCS(=O)(=O)N1C(=O)C2CCCN2C(=O)[C@@H]1Cc1ccccc1)C(=O)OCc1ccccc1 (stereo partly specified)
30.9 µM (inactive)

Please report the measured GI50 for C(=N\CCCN1CCN(CCC/N=C/c2cccc3ccccc23)CC1)/c1cccc2ccccc12
71.8 µM (inactive)

Please report the measured GI50 for Cc1ccc2nc3c(Cl)cc(=O)cc-3sc2c1
22.2 µM (inactive)

Please report the measured GI50 for COP(=O)(OC)C(=O)N1N(c2ccc([N+](=O)[O-])cc2)C(=O)C(C)NC1(NNc1ccc([N+](=O)[O-])cc1)P(=O)(OC)OC (stereo unspecified)
> 100 µM (inactive)

Please report the measured GI50 for CCn1c(=O)nc2n(-c3ccc(SC)cc3)c3ccccc3nc-2c1=O
> 100 µM (inactive)

Please report the measured GI50 for C[N+](C)=c1[nH]c2ccccc2[nH]1
> 100 µM (inactive)

* * *

# Test system: HL-60
# Assay details: NCI tumour cell line growth inhibition, 48 h
Activity calls are given as the source filed them. No stated cut-off is given here; in the data, active = GI50 up to about 1.1 µM and inactive = higher. Non-standard residues stand in square brackets, D forms with d. Residues, ends and D or L forms follow the SMILES beside them. ξ: configuration not given here. *: point of attachment. ξNMeF = CNC(Cc1ccccc1)C(=O)O; NMeV = CN[C@H](C(=O)O)C(C)C; Boc = CC(C)(C)OC(=O)*; OBn = c1ccc(CO*)cc1
Assign GI50 to each entry below.

Please report the measured GI50 for CCOC(=O)C(NC(=O)CC)(Nc1ccc(F)c(Cl)c1)C(F)(F)F (stereo unspecified)
> 36.2 µM (inactive)

Please report the measured GI50 for COC1=CC(=O)c2c(ccc3ncnc(N)c23)C1=O
0.57 µM (active)

Please report the measured GI50 for CC(=O)OCC1OC(n2cccnc2=O)C(OC(C)=O)C1OC(C)=O (stereo unspecified)
> 100 µM (inactive)

Please report the measured GI50 for CC(C)[C@@H](C(=O)N(C)[C@H](C(=O)N1CCC[C@H]1C(=O)OCc1ccccc1)C(C)C)N(C)C(=O)C(Cc1ccccc1)N(C)C(=O)[C@H](NC(=O)OC(C)(C)C)C(C)C (stereo partly specified) (Boc-[dV][ξNMeF][NMeV][NMeV]P-OBn)
19 µM (inactive)

Please report the measured GI50 for CC(C)n1c(=O)[nH]n(-c2ccccc2)c1=O
> 100 µM (inactive)

Please report the measured GI50 for O=c1oc(C(C(F)(F)F)C(F)(F)F)nc2ccccc12
> 100 µM (inactive)

* * *

Counter-ions that a name gives are not always drawn.
HCT-15: reported GI50 for various compounds.

Please report the measured GI50 for CC(C)(C)OC(=O)CC(NC(=O)OC(C)(C)C)C(=O)Oc1ccc([N+](=O)[O-])cc1 (stereo not drawn)
> 100 µM

Please report the measured GI50 for O=C(/C=C/c1ccc2ccccc2c1)NCc1ccc(C(=O)NCCc2ccccc2)cc1
> 100 µM

Please report the measured GI50 for CC(=O)OC12c3ccccc3-c3ccccc3C1C(C(=O)O)C2(Cl)C(=O)O (stereo not drawn)
> 10 µM

Please report the measured GI50 for CCOc1ccccc1N1CSc2nnc(-c3ccccc3)n2C1
> 100 µM

Please report the measured GI50 for O=c1ccn(C2OC(CO)C(O)C2[Se]c2ccccc2)c(=O)[nH]1 (stereo not drawn)
> 100 µM

Please report the measured GI50 for CCOC(=O)/C(=C\NC(=S)Nc1ccc(OCC)cc1)C(=O)c1ccccc1
> 100 µM

Please report the measured GI50 for O=C1c2cccc3cc([N+](=O)[O-])cc(c23)C(=O)N1CCCN1CCN(CCCNc2ccc3ncn4c5ccccc5c(=O)c2c34)CC1
< 0.005 µM

Please report the measured GI50 for O/N=C1\SC(=N\O)/C(=N/O)S\C1=N/O
> 100 µM

Please report the measured GI50 for Cc1nc(C(N)=S)sc1C(=O)C/C(=N/N)C(=O)Nc1ccc(Cl)cc1
> 10 µM

Please report the measured GI50 for CC(Oc1ccc(Cl)cc1Cl)C(=O)NN1C(=O)CSC1c1ccccc1 (stereo not drawn)
> 100 µM

Please report the measured GI50 for CC(NNC(=O)c1cc[n+]([BH2-]C#N)cc1)C(F)(F)F (stereo not drawn)
> 100 µM

Please report the measured GI50 for CCC(C#N)(c1ccccc1)N(CCc1ccccc1)C(=O)c1ccccc1 (stereo not drawn)
> 100 µM

Please report the measured GI50 for O=S(=O)(O)c1c(Cl)cc(O)c2ncccc12
> 100 µM

Please report the measured GI50 for Oc1ccc(C(O)C2CCCCN2)cc1O (stereo not drawn) [RIMITEROL HYDROBROMIDE]
> 100 µM

Please report the measured GI50 for CC(C)(Oc1ccc(C(=O)c2ccc(Cl)cc2)cc1Cl)C(=O)Nc1c(Cl)cccc1Cl
> 100 µM

Please report the measured GI50 for c1ccc2c3nnc(c2c1)SCCSCCSc1nnc(c2ccccc12)SCCSCCS3
> 100 µM

Please report the measured GI50 for Clc1ccc2sc(-n3ccc4ccccc43)nc2c1
> 100 µM

Please report the measured GI50 for CCOC(=O)n1[nH]c(=O)n(-c2ccccc2)c1=O
> 100 µM

Sourced from ChEMBL document CHEMBL1201862
